These data points were gathered from paper PMC6592895.

- MEASURED TARGET: OAT1 (Homo sapiens)
- Sequence (Q4U2R8 1-563): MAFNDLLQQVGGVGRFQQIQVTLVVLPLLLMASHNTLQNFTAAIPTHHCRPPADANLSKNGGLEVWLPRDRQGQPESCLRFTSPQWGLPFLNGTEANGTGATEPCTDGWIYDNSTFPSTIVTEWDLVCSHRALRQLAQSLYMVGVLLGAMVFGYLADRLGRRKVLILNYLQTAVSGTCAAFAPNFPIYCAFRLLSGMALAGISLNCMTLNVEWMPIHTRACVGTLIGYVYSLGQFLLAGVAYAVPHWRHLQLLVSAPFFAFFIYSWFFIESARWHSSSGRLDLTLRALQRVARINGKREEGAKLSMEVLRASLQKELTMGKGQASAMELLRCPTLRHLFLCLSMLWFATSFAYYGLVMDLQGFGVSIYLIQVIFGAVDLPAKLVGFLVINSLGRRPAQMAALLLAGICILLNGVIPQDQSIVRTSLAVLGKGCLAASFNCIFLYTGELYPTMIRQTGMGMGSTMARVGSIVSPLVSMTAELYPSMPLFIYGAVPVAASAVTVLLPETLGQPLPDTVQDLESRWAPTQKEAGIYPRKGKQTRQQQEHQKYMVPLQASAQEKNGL
- ASSAY REMARKS: 6-CF uptake assay in HEK-OAT1 cells
PARAMETER MEASURED: IC50 (µM)

Guide cases for IC50, answers given:
COc1ccc(OC)c(-c2cc(=O)c3c(OC)c(OC)ccc3o2)c1OC = 10
COc1cc(-c2cc(=O)c3ccccc3o2)cc(O)c1OC [Compound 6, 3′-hydroxy-4′,5′-dimethoxyflavone] = 3.2

a. COc1ccccc1-c1cc(=O)c2ccccc2o1
b. O=c1cc(-c2ccccc2)oc2ccccc12
Quick one: lower IC50, a or b ? State the label of the item chosen. a
(a: 2.9 µM, b: 9.4 µM)
